- Measured Target: T1, human SIRPα v1 on CHOK1 cells (human, UniProt P78324 31-504)
- T1 construct: whole, on cells; also called CHOK1-hSIRPα v1; cell surface human SIRPα v1
- T1 sequence (P78324 31-504): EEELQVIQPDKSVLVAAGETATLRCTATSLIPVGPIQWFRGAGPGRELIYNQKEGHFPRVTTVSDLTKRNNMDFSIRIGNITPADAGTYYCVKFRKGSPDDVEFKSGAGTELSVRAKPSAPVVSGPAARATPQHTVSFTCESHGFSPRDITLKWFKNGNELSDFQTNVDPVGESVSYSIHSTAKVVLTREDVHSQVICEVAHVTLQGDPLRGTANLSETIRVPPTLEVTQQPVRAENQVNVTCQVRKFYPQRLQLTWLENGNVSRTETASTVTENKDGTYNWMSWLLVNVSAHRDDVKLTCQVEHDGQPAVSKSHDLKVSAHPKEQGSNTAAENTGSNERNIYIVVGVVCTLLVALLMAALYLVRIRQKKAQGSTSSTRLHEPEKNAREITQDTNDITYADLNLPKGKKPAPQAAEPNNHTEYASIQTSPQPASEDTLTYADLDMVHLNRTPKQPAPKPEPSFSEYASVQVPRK
- Measurement Notes: FACS, CHOK1 cells stably expressing human SIRPα v1
Endpoint Label: TOP MFI
Write the quantity with the unit trailing the number.

TOP MFI recorded for this binder, Anti-SIRPα antibody C42 (antibody, human IgG4, V domains shown, Mouse variable regions; also called 042c) VH: QIQLVQSGPELKKPGETVKISCRASGYTFTTYGMSWVKQAPGKGLRWMGWINTYSGVSTCADDFKGRFAFSLETSATTAYLQIHNLTNEDTATYFCARDPHSYGNSPAWFPYWGQGTLVTVSA VL: DIVMTQSQKFMSTTIRDRVSITCKASQNVGISVAWYQQKSGQSPKLLIYSASNRYTGVPDRFTGSGSGTDFTLTISNMQSEDLADYFCQQYSSYPLTFGSGTKLAIK , is 73200 MFI
